experiment: NCI Yeast Anticancer Drug Screen. Data for the cln2 rad14 strain (AID 165);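 further: 0% = growth equal to vehicle treated cultures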; conditions: S. cerevisiae cln2 rad14 strain, at 50.0 µM, hits give high values
The panel holds about 79,000 compounds, 15% with a hit somewhere; the sample as a whole holds those more often.
// 0 (no) strictly below -10% in growth inhibition; 1 (yes) otherwise

Take a look at these entries with their results.
{"molecule": "COCCCNC(=O)C1C(=O)C(=O)N(CCCOC)C1=O (stereo not drawn)", "assigned label": "1 (yes)"}
{"molecule": "CC(C)CC(C#N)C(=O)O (stereo not drawn)", "assigned label": "1 (yes)"}
{"molecule": "O=C(Nc1cccc(Cl)c1)Oc1ccccc1", "assigned label": "1 (yes)"}
{"molecule": "O=C(Nc1cccc2ccccc12)Oc1ccc(Br)cc1Br", "assigned label": "1 (yes)"}
{"molecule": "O=[N+]([O-])c1ccc(C=C2C=c3ccccc3=C2)cc1", "assigned label": "0 (no)"}
{"molecule": "Nc1nc(O)c(N)c(=O)[nH]1", "assigned label": "0 (no)"}

Check this molecule for growth inhibition at or above -10%: CC(=O)N(Cl)c1ccc(N=Nc2ccccc2)cc1F
1 (yes)

Check this molecule for growth inhibition at or above -10%: COC1(OC)CCC2C1C1CCC(OC)(OC)C21 (stereo not drawn)
1 (yes)

Check this molecule for growth inhibition at or above -10%: CC1Oc2c(c(=O)oc3ccccc23)[C@@]1(C)CC1C[C@H](C)C(=O)O1 (stereo partly drawn)
1 (yes)

Check this molecule for growth inhibition at or above -10%: c1ccc2scnc2c1
0 (no)

Check this molecule for growth inhibition at or above -10%: NC(=S)NNCC(=O)CC(O)(C(F)(F)F)C(F)(F)Cl (stereo not drawn)
0 (no)

Check this molecule for growth inhibition at or above -10%: CCOC(=O)/C(C#N)=C/c1ccc(Br)cc1
1 (yes)

* * *

Experiment: NCI Yeast Anticancer Drug Screen. Data for the bub3 strain (AID 167)
Details: S. cerevisiae bub3 mutant strain, at 50.0 µM, hits give high values
Description: Growth inhibition of yeast strains with defined genetic alterations is measured as a screen for potential anti-cancer activity. Selected strains with alterations in DNA damage repair or cell cycle control were exposed to compounds and growth inhibition was measured relative to vehicle treated controls. The strain used in this assay is bub3
This is part of a sample that, as a whole, favours compounds with a hit. Of some 79,000 tested, about 15% had one in any assay.
Measured growth inhibition of individual entries
Numbers only here, please. The scale is %.

Sample answers from the record:
{"compound": "O=C1CCC(=O)C(C(=O)CCC(=O)Nc2cccc(Cl)c2)C1 (stereo not drawn)", "growth inhibition [%]": 11.9}
{"compound": "COc1ccc(N2C(=O)C(C)SC23C(=O)Nc2ccccc23)cc1 (stereo not drawn)", "growth inhibition [%]": 4.75}
{"compound": "COc1cccc(-c2cc(=O)c3cccnc3[nH]2)c1", "growth inhibition [%]": 26.6}

Output measured growth inhibition for this item: Cc1cc(Cl)nc2ccc(Cc3ccc(Cl)cc3)cc12
11.1

Output measured growth inhibition for this item: CN(C)C(=O)c1cccnc1
-18.2

* * *

test: NCI Yeast Anticancer Drug Screen. Data for the mec2-1 strain (AID 157); conditions: S. cerevisiae mec2-1 strain, at 50.0 µM, hits give high values
This is part of a sample that, as a whole, favours compounds with a hit. Of some 79,000 tested, about 15% had one in any assay.
value type: growth inhibition (%)
Numbers only here, please. The scale is %.

{"compound": "COc1ccc2c(=O)c(Cc3c[nH]c4ccccc34)coc2c1", "growth inhibition, %": 12}
{"compound": "CCOC(=O)C(C(=O)OCC)C(c1ccccc1)c1ccccc1OC (configuration not stated)", "growth inhibition, %": 12}
{"compound": "O=c1nc2n(cc1F)C1OC(CCl)C(O)C1O2 (configuration not stated)", "growth inhibition, %": -8}

Output measured growth inhibition for this item: CC1CCC(O)CC1C (configuration not stated)
-24.6

Output measured growth inhibition for this item: CCCCOCCOC(=O)Nc1cccc(Cl)c1
30.7

Output measured growth inhibition for this item: COc1ccc(CCN2C(=O)C(=O)N(C(C)C)C2=O)cc1OC
1.6

Output measured growth inhibition for this item: C=C1C(=O)OC2CC(C)C(C(CC(C)=O)OC(C)=O)=CCC12 (configuration not stated)
5.1

Output measured growth inhibition for this item: Cc1[nH]c(C)c2ccc(=O)ccc12
-8.35

Output measured growth inhibition for this item: N#CC(C#N)=C1C=Cc2ccccc2O1
-1.35

Output measured growth inhibition for this item: CNc1ncnc2c1c(C(N)=S)cn2C1OC(CO)C(O)C1O (configuration not stated)
-22.7

Output measured growth inhibition for this item: COC(=O)c1ccccc1C1CN=NC12Cc1c(ccc3c1CCC3)C2=O (configuration not stated)
-5.95
